Origin of measurements: paper PMC8398255

# Tested on: S. aureus BAA-2312 (Sa12)
# ASSAY_OVERVIEW: MIC, microdilution (CLSI)
# Type: cell-based
# CONDITION_CONTEXT: Staphylococcus aureus, BAA2312; Sa12, methicillin-resistant S. aureus BAA-2312; n = 3; read-out: MIC
QUANTITY_MEASURED: MIC

• O=C(O)c1ccc(-n2cc(CNc3cc(Cl)c(F)c(Cl)c3F)c(-c3cc(C(F)(F)F)cc(C(F)(F)F)c3)n2)cc1 [Compound 30] = 2 µg/mL
• O=C(O)c1ccc(-n2cc(CNc3ccc(F)c(Cl)c3)c(-c3cc(C(F)(F)F)cc(C(F)(F)F)c3)n2)cc1 [Compound 18] = 1 µg/mL
• CSc1ccc(NCc2cn(-c3ccc(C(=O)O)cc3)nc2-c2cc(C(F)(F)F)cc(C(F)(F)F)c2)cc1 [Compound 6] = 2 µg/mL
• O=C(O)c1ccc(-n2cc(CNc3ccc(Oc4ccccc4)cc3)c(-c3cc(C(F)(F)F)cc(C(F)(F)F)c3)n2)cc1 [Compound 5] = 2 µg/mL
• Cc1ccc(NCc2cn(-c3ccc(C(=O)O)cc3)nc2-c2cc(C(F)(F)F)cc(C(F)(F)F)c2)cc1Cl [Compound 15] = 1 µg/mL

### Prompt Report MIC for O=C(O)c1ccc(-n2cc(CNc3ccc(Cl)c(Cl)c3)c(-c3cc(C(F)(F)F)cc(C(F)(F)F)c3)n2)cc1 [Compound 19]
### Response 0.5 µg/mL

### Prompt Check the records and state MIC for O=C(O)c1ccc(-n2cc(CNc3cccc(F)c3)c(-c3cc(C(F)(F)F)cc(C(F)(F)F)c3)n2)cc1 [Compound 7]
### Response 2 µg/mL

* * *

The entries below come with measured MIC values attached.
# Tested on: S. aureus ATCC 25923 (Sa23)
# ASSAY_OVERVIEW: MIC, microdilution (CLSI)
# Assay type: cell-based
# CONDITION_CONTEXT: Staphylococcus aureus, ATCC25923; Sa23, antibiotic susceptible S. aureus ATCC 25923; n = 3; read-out: MIC
I only need the number, in µg/mL, no unit after it.

• Cc1cc(NCc2cn(-c3ccc(C(=O)O)cc3)nc2-c2cc(C(F)(F)F)cc(C(F)(F)F)c2)ccc1F = 2

### Prompt Specify MIC for `O=C(O)c1ccc(-n2cc(CNc3ccc(Br)c(C(F)(F)F)c3)c(-c3cc(C(F)(F)F)cc(C(F)(F)F)c3)n2)cc1` and stop.
### Response 1

### Prompt Supply measured MIC of `O=C(O)c1ccc(-n2cc(CNc3cc(Cl)c(F)c(Cl)c3F)c(-c3cc(C(F)(F)F)cc(C(F)(F)F)c3)n2)cc1` in your reply.
### Response 1

### Prompt Provide measured MIC value, entry: `O=C(O)c1ccc(-n2cc(CNc3cc(Cl)c(F)c(Cl)c3)c(-c3cc(C(F)(F)F)cc(C(F)(F)F)c3)n2)cc1`
### Response 1

### Prompt Let me know recorded MIC for `CSc1ccc(NCc2cn(-c3ccc(C(=O)O)cc3)nc2-c2cc(C(F)(F)F)cc(C(F)(F)F)c2)cc1` , thanks.
### Response 2

### Prompt Give the value of MIC reported for the following: `O=C(O)c1ccc(-n2cc(CNc3ccc(Cl)cc3)c(-c3cc(C(F)(F)F)cc(C(F)(F)F)c3)n2)cc1`
### Response 2

### Prompt Assign MIC to the following record: `CC(C)c1ccc(NCc2cn(-c3ccc(C(=O)O)cc3)nc2-c2cc(C(F)(F)F)cc(C(F)(F)F)c2)cc1`
### Response 2

### Prompt Read off the recorded MIC for `O=C(O)c1ccc(-n2cc(CNc3ccc(F)c(F)c3F)c(-c3cc(C(F)(F)F)cc(C(F)(F)F)c3)n2)cc1`
### Response 2

### Prompt Output measured MIC for this item: `O=C(O)c1ccc(-n2cc(CNc3ccc(Br)c(Cl)c3)c(-c3cc(C(F)(F)F)cc(C(F)(F)F)c3)n2)cc1`
### Response 1

### Prompt Give reported MIC value for `O=C(O)c1ccc(-n2cc(CNc3ccc(F)cc3)c(-c3cc(C(F)(F)F)cc(C(F)(F)F)c3)n2)cc1`
### Response 2

### Prompt Entry `O=C(O)c1ccc(-n2cc(CNc3cccc(Br)c3)c(-c3cc(C(F)(F)F)cc(C(F)(F)F)c3)n2)cc1` needs its MIC filled in; supply it.
### Response 2

### Prompt Retrieve MIC measured for `O=C(O)c1ccc(-n2cc(CNc3ccc(F)c(Cl)c3F)c(-c3cc(C(F)(F)F)cc(C(F)(F)F)c3)n2)cc1` and print it.
### Response 1

### Prompt Answer with reported MIC of `O=C(O)c1ccc(-n2cc(CNc3ccc(F)c(C(F)(F)F)c3)c(-c3cc(C(F)(F)F)cc(C(F)(F)F)c3)n2)cc1`
### Response 1

### Prompt Item `O=C(O)c1ccc(-n2cc(CNc3cccc(F)c3)c(-c3cc(C(F)(F)F)cc(C(F)(F)F)c3)n2)cc1` : provide MIC
### Response 4

* * *

# Tested on: S. epidermidis ATCC 700296 (Se)
# ASSAY_OVERVIEW: MIC, microdilution (CLSI)
# Type: cell-based
# CONDITION_CONTEXT: Staphylococcus epidermidis, ATCC700296; Se, S. epidermidis ATCC 700296; n = 3; read-out: MIC
QUANTITY_MEASURED: MIC (µg/mL)
State just the number; it will be interpreted in µg/mL.

Example entries and their recorded answers appear below.
- O=C(O)c1ccc(-n2cc(CNc3cccc(F)c3)c(-c3cc(C(F)(F)F)cc(C(F)(F)F)c3)n2)cc1: 4
- Cc1ccc(NCc2cn(-c3ccc(C(=O)O)cc3)nc2-c2cc(C(F)(F)F)cc(C(F)(F)F)c2)cc1Cl: 2
- O=C(O)c1ccc(-n2cc(CNc3cc(F)c(F)c(F)c3)c(-c3cc(C(F)(F)F)cc(C(F)(F)F)c3)n2)cc1: 4

### Prompt Retrieve MIC measured for `O=C(O)c1ccc(-n2cc(CNc3cc(Cl)c(F)c(Cl)c3F)c(-c3cc(C(F)(F)F)cc(C(F)(F)F)c3)n2)cc1` and print it.
### Response 2

### Prompt Item `O=C(O)c1ccc(-n2cc(CNc3cc(Cl)cc(Cl)c3)c(-c3cc(C(F)(F)F)cc(C(F)(F)F)c3)n2)cc1` : provide MIC
### Response 2

### Prompt Consider the compound CCCCCCCCCC(=O)N[C@@H](Cc1c[nH]c2ccccc12)C(=O)N[C@H](CC(N)=O)C(=O)N[C@@H](CC(=O)O)C(=O)N[C@@H]1C(=O)NCC(=O)N[C@@H](CCCN)C(=O)N[C@@H](CC(=O)O)C(=O)N[C@H](C)C(=O)N[C@@H](CC(=O)O)C(=O)NCC(=O)N[C@H](CO)C(=O)N[C@@H]([C@H](C)CC(=O)O)C(=O)N[C@@H](CC(=O)c2ccccc2N)C(=O)O[C@@H]1C [D, Daptomycin, reference compound] . State its measured MIC.
### Response 2

### Prompt Indicate its recorded MIC; the compound in question is `Cc1cc(NCc2cn(-c3ccc(C(=O)O)cc3)nc2-c2cc(C(F)(F)F)cc(C(F)(F)F)c2)ccc1F`
### Response 4

### Prompt Entry `Cc1cc(NCc2cn(-c3ccc(C(=O)O)cc3)nc2-c2cc(C(F)(F)F)cc(C(F)(F)F)c2)ccc1Br` needs its MIC filled in; supply it.
### Response 2

* * *

# Tested on: S. epidermidis ATCC 700296 (Se)
# ASSAY_OVERVIEW: MIC, microdilution (CLSI)
# Assay type: cell-based
# CONDITION_CONTEXT: Staphylococcus epidermidis, ATCC700296; Se, S. epidermidis ATCC 700296; n = 3; read-out: MIC
QUANTITY_MEASURED: MIC (µg/mL)
Write down the numeric answer in µg/mL and omit the unit.

Sample records with MIC:
* O=C(O)c1ccc(-n2cc(CNc3ccc(Cl)c(Cl)c3)c(-c3cc(C(F)(F)F)cc(C(F)(F)F)c3)n2)cc1 | 1
* O=C(O)c1ccc(-n2cc(CNc3ccc(F)c(Cl)c3)c(-c3cc(C(F)(F)F)cc(C(F)(F)F)c3)n2)cc1 | 2
* O=C(O)c1ccc(-n2cc(CNc3ccc(Br)c(Cl)c3)c(-c3cc(C(F)(F)F)cc(C(F)(F)F)c3)n2)cc1 | 2

### Prompt Please give measured MIC of the following entry: `CC(C)c1ccc(NCc2cn(-c3ccc(C(=O)O)cc3)nc2-c2cc(C(F)(F)F)cc(C(F)(F)F)c2)cc1`
### Response 2

### Prompt Query MIC for `O=C(O)c1ccc(-n2cc(CNc3ccc(F)c(Cl)c3F)c(-c3cc(C(F)(F)F)cc(C(F)(F)F)c3)n2)cc1`
### Response 2

### Prompt Please give the documented MIC of `O=C(O)c1ccc(-n2cc(CNc3ccc(Br)cc3)c(-c3cc(C(F)(F)F)cc(C(F)(F)F)c3)n2)cc1`
### Response 2
